Just for reference, ChEMBL document CHEMBL3885861 is where these values come from.

species: Rattus norvegicus; assay: Open TG-GATES - Regimen: Single; assay type: toxicity, organism-based, Sprague-Dawley; parameters: regimen Single, gender Male, age 6 weeks; settings: in vivo, po, 0 mg/kg, 3 h, tissue Kidney, route gavage, dose level Control
MEASUREMENT LABEL: KIDNEY_TOTAL (g)
Dear colleague, please return just the value in g, with no unit written.

# KIDNEY_TOTAL lookup, item CC(C)Cc1ccc(C(C)C(=O)O)cc1 (configuration not stated) 1.9

# KIDNEY_TOTAL lookup, item CC[C@@H](CO)NCCN[C@@H](CC)CO 2.1

# KIDNEY_TOTAL lookup, item CC(CCc1ccccc1)NCC(O)c1ccc(O)c(C(N)=O)c1 (configuration not stated) 1.8

# KIDNEY_TOTAL lookup, item CC(=O)Nc1ccc2c(c1)Cc1ccccc1-2 2

# KIDNEY_TOTAL lookup, item CC(=O)N1CCN(c2ccc(OCC3COC(Cn4ccnc4)(c4ccc(Cl)cc4Cl)O3)cc2)CC1 (configuration not stated) 1.9

# KIDNEY_TOTAL lookup, item CCN(CC)N=O 1.9

# KIDNEY_TOTAL lookup, item O=C(O)COc1nn(Cc2ccccc2)c2ccccc12 1.9

---

species on record: Rattus norvegicus; assay: Open TG-GATES - Regimen: Daily Repeat; assay type: toxicity, organism-based, Sprague-Dawley; set-up: regimen Daily Repeat, gender Male, age 6 weeks; conditions: in vivo, po, 0 mg/kg, […], tissue Plasma, route gavage, dose level Control, time 28 day
MEASUREMENT LABEL: ALT (IU/L)
Dear colleague, please return just the value in IU/L, with no unit written.

# ALT lookup, item CC(C)Cc1ccc(C(C)C(=O)O)cc1 (configuration not stated) 35.2

# ALT lookup, item O=C(O)COc1nn(Cc2ccccc2)c2ccccc12 33.2

# ALT lookup, item CC(CCc1ccccc1)NCC(O)c1ccc(O)c(C(N)=O)c1 (configuration not stated) 43.2

# ALT lookup, item CC[C@@H](CO)NCCN[C@@H](CC)CO 41

# ALT lookup, item CC(=O)Nc1ccc2c(c1)Cc1ccccc1-2 30.8

# ALT lookup, item CCN(CC)N=O 33

# ALT lookup, item CC(N)=O [ACETAMIDE] 34.2

---

For each entry below, report its TG value.
species: Rattus norvegicus; test: Open TG-GATES - Regimen: Daily Repeat; assay type: toxicity, organism-based, Sprague-Dawley; set-up: regimen Daily Repeat, gender Male, age 6 weeks; conditions: in vivo, po, 0 mg/kg, […], tissue Plasma, route gavage, dose level Control, time 14 day
Dear colleague, please return just the value in mg/dL, with no unit written.

# TG lookup, item CC(N)=O [ACETAMIDE] 191.9

# TG lookup, item CC(CCc1ccccc1)NCC(O)c1ccc(O)c(C(N)=O)c1 (configuration not stated) 120.8

# TG lookup, item CC[C@@H](CO)NCCN[C@@H](CC)CO 116.4

# TG lookup, item CCN(CC)N=O 93.6

# TG lookup, item O=C(O)COc1nn(Cc2ccccc2)c2ccccc12 153.2

# TG lookup, item CC(=O)N1CCN(c2ccc(OCC3COC(Cn4ccnc4)(c4ccc(Cl)cc4Cl)O3)cc2)CC1 (configuration not stated) 140.8

# TG lookup, item CC(=O)Nc1ccc2c(c1)Cc1ccccc1-2 138

---

organism: Rattus norvegicus; test: Open TG-GATES - Regimen: Daily Repeat; assay type: toxicity, organism-based, Sprague-Dawley; design: regimen Daily Repeat, gender Male, age 6 weeks; conditions: in vivo, po, 0 mg/kg, 72 h, route gavage, dose level Control, time 3 day
MEASUREMENT LABEL: TERMINAL_BW (g)
Dear colleague, please return just the value in g, with no unit written.

# TERMINAL_BW lookup, item CC(N)=O [ACETAMIDE] 236.7

# TERMINAL_BW lookup, item CC[C@@H](CO)NCCN[C@@H](CC)CO [ETHAMBUTOL] 245.1

# TERMINAL_BW lookup, item CC(C)Cc1ccc(C(C)C(=O)O)cc1 (stereo not drawn) [IBUPROFEN] 222.9

# TERMINAL_BW lookup, item CC(CCc1ccccc1)NCC(O)c1ccc(O)c(C(N)=O)c1 (stereo not drawn) [LABETALOL] 252.2

# TERMINAL_BW lookup, item CC(=O)Nc1ccc2c(c1)Cc1ccccc1-2 [2-ACETYLAMINOFLUORENE] 245.3

# TERMINAL_BW lookup, item CCN(CC)N=O [N-NITROSODIETHYLAMINE] 240.5

# TERMINAL_BW lookup, item CC(=O)N1CCN(c2ccc(OCC3COC(Cn4ccnc4)(c4ccc(Cl)cc4Cl)O3)cc2)CC1 (stereo not drawn) [KETOCONAZOLE] 231

# TERMINAL_BW lookup, item O=C(O)COc1nn(Cc2ccccc2)c2ccccc12 [BENDAZAC] 229.2

---

organism: Rattus norvegicus; assay: Open TG-GATES - Regimen: Single; format: toxicity, organism-based, Sprague-Dawley; set-up: regimen Single, gender Male, age 6 weeks; conditions: in vivo, po, 0 mg/kg, 6 h, tissue Kidney, route gavage, dose level Control
MEASUREMENT LABEL: KIDNEY_TOTAL (g)
Dear colleague, please return just the value in g, with no unit written.

# KIDNEY_TOTAL lookup, item CC(CCc1ccccc1)NCC(O)c1ccc(O)c(C(N)=O)c1 (configuration not stated) 1.9

# KIDNEY_TOTAL lookup, item CC(=O)Nc1ccc2c(c1)Cc1ccccc1-2 2

# KIDNEY_TOTAL lookup, item CC(=O)N1CCN(c2ccc(OCC3COC(Cn4ccnc4)(c4ccc(Cl)cc4Cl)O3)cc2)CC1 (configuration not stated) 1.9

# KIDNEY_TOTAL lookup, item CC(C)Cc1ccc(C(C)C(=O)O)cc1 (configuration not stated) 1.9

# KIDNEY_TOTAL lookup, item O=C(O)COc1nn(Cc2ccccc2)c2ccccc12 2

# KIDNEY_TOTAL lookup, item CC[C@@H](CO)NCCN[C@@H](CC)CO 2

# KIDNEY_TOTAL lookup, item CCN(CC)N=O 2

---

organism: Rattus norvegicus; test: Open TG-GATES - Regimen: Daily Repeat; assay type: toxicity, organism-based, Sprague-Dawley; parameters: regimen Daily Repeat, gender Male, age 6 weeks; conditions: in vivo, po, 0 mg/kg, […], tissue Blood, route gavage, dose level Control, time 14 day
MEASUREMENT LABEL: MCV (fL)
Dear colleague, please return just the value in fL, with no unit written.

# MCV lookup, item CC(=O)N1CCN(c2ccc(OCC3COC(Cn4ccnc4)(c4ccc(Cl)cc4Cl)O3)cc2)CC1 (stereo not drawn) [KETOCONAZOLE] 59.8

# MCV lookup, item CC(C)Cc1ccc(C(C)C(=O)O)cc1 (stereo not drawn) [IBUPROFEN] 59.9

# MCV lookup, item CC[C@@H](CO)NCCN[C@@H](CC)CO [ETHAMBUTOL] 60.1

# MCV lookup, item CC(N)=O [ACETAMIDE] 58.9

# MCV lookup, item CCN(CC)N=O [N-NITROSODIETHYLAMINE] 60.1

# MCV lookup, item CC(=O)Nc1ccc2c(c1)Cc1ccccc1-2 [2-ACETYLAMINOFLUORENE] 59

# MCV lookup, item O=C(O)COc1nn(Cc2ccccc2)c2ccccc12 [BENDAZAC] 62.8

# MCV lookup, item CC(CCc1ccccc1)NCC(O)c1ccc(O)c(C(N)=O)c1 (stereo not drawn) [LABETALOL] 61.5

---

For each entry below, report its WBC value.
species: Rattus norvegicus; test: Open TG-GATES - Regimen: Daily Repeat; type: toxicity, organism-based, Sprague-Dawley; design: regimen Daily Repeat, gender Male, age 6 weeks; conditions: in vivo, po, 0 mg/kg, […], tissue Blood, route gavage, dose level Control, time 14 day
Dear colleague, please return just the value in x10_2/uL, with no unit written.

# WBC lookup, item CCN(CC)N=O 94.2

# WBC lookup, item CC(C)Cc1ccc(C(C)C(=O)O)cc1 (stereo not drawn) 104.5

# WBC lookup, item O=C(O)COc1nn(Cc2ccccc2)c2ccccc12 120.8

# WBC lookup, item CC(CCc1ccccc1)NCC(O)c1ccc(O)c(C(N)=O)c1 (stereo not drawn) 82.7

# WBC lookup, item CC[C@@H](CO)NCCN[C@@H](CC)CO 116.4

# WBC lookup, item CC(N)=O [ACETAMIDE] 124.3

# WBC lookup, item CC(=O)Nc1ccc2c(c1)Cc1ccccc1-2 96.8

# WBC lookup, item CC(=O)N1CCN(c2ccc(OCC3COC(Cn4ccnc4)(c4ccc(Cl)cc4Cl)O3)cc2)CC1 (stereo not drawn) 110.9

---

For each entry below, report its KIDNEY_R value.
species: Rattus norvegicus; experiment: Open TG-GATES - Regimen: Daily Repeat; format: toxicity, organism-based, Sprague-Dawley; design: regimen Daily Repeat, gender Male, age 6 weeks; conditions: in vivo, po, 0 mg/kg, […], tissue Kidney, route gavage, dose level Control, time 28 day
Dear colleague, please return just the value in g, with no unit written.

# KIDNEY_R lookup, item CC(N)=O [ACETAMIDE] 1.4

# KIDNEY_R lookup, item CC(CCc1ccccc1)NCC(O)c1ccc(O)c(C(N)=O)c1 (stereo not drawn) 1.4

# KIDNEY_R lookup, item CC(=O)N1CCN(c2ccc(OCC3COC(Cn4ccnc4)(c4ccc(Cl)cc4Cl)O3)cc2)CC1 (stereo not drawn) 1.4

# KIDNEY_R lookup, item CCN(CC)N=O 1.3

# KIDNEY_R lookup, item CC(C)Cc1ccc(C(C)C(=O)O)cc1 (stereo not drawn) 1.4

# KIDNEY_R lookup, item O=C(O)COc1nn(Cc2ccccc2)c2ccccc12 1.4

# KIDNEY_R lookup, item CC[C@@H](CO)NCCN[C@@H](CC)CO 1.4

# KIDNEY_R lookup, item CC(=O)Nc1ccc2c(c1)Cc1ccccc1-2 1.5
